These data points were gathered from paper PMC3346155.

# test-description: Plasma pharmacokinetics after a single subcutaneous dose in healthy volunteers
# Assay type: in vivo, human
# experimental-conditions: male, human, plasma, sc, 100 ug
*1 amine or outer side, *2 acyl side, *3 side chain or, on linkers, in order; H or OH if unused. Where a SMILES comes first, the peptide text is derived from it. Side-chain parts run from the residue outwards. [ ]: non-standard residue; d: D form. The star is where a group is joined. Ethylenediamine = C(CN[*:2])N[*:1]; Hyp = O=C(O)[C@@H]1C[C@@H](O)CN1; Phg = N[C@H](C(=O)O)c1ccccc1; CO = O=C([*:1])[*:2]; Bn = c1ccc(C*)cc1
property-measured: AUC(0-t) (ng·h/mL)
Give the quantity in ng·h/mL, number only.

Entry NCCCC[C@@H]1NC(=O)[C@@H](Cc2c[nH]c3ccccc23)NC(=O)[C@H](c2ccccc2)NC(=O)[C@@H]2C[C@@H](OC(=O)NCCN)CN2C(=O)[C@H](Cc2ccccc2)NC(=O)[C@H](Cc2ccc(OCc3ccccc3)cc2)NC1=O [Pasireotide] (cyclo([Hyp]([CO-Ethylenediamine])[Phg][dW]KY(Bn)F)) — recorded AUC(0-t) = 9.1

---

# test-description: Plasma pharmacokinetics after a single subcutaneous dose in healthy volunteers
# Format: in vivo, human
# experimental-conditions: male, human, plasma, sc, 100 ug
*1 amine or outer side, *2 acyl side, *3 side chain or, on linkers, in order; H or OH if unused. Where a SMILES comes first, the peptide text is derived from it. Side-chain parts run from the residue outwards. [ ]: non-standard residue; d: D form. The star is where a group is joined. Ethylenediamine = C(CN[*:2])N[*:1]; Hyp = O=C(O)[C@@H]1C[C@@H](O)CN1; Phg = N[C@H](C(=O)O)c1ccccc1; CO = O=C([*:1])[*:2]; Bn = c1ccc(C*)cc1
property-measured: CL/F (mL/min)
Give the quantity in mL/min, number only.

Entry NCCCC[C@@H]1NC(=O)[C@@H](Cc2c[nH]c3ccccc23)NC(=O)[C@H](c2ccccc2)NC(=O)[C@@H]2C[C@@H](OC(=O)NCCN)CN2C(=O)[C@H](Cc2ccccc2)NC(=O)[C@H](Cc2ccc(OCc3ccccc3)cc2)NC1=O [Pasireotide] (cyclo([Hyp]([CO-Ethylenediamine])[Phg][dW]KY(Bn)F)) — recorded CL/F = 183

---

# test-description: Plasma pharmacokinetics after a single subcutaneous dose in healthy volunteers
# Assay type: in vivo, human
# experimental-conditions: male, human, plasma, sc, 1200 ug
*1 amine or outer side, *2 acyl side, *3 side chain or, on linkers, in order; H or OH if unused. Where a SMILES comes first, the peptide text is derived from it. Side-chain parts run from the residue outwards. [ ]: non-standard residue; d: D form. The star is where a group is joined. Ethylenediamine = C(CN[*:2])N[*:1]; Hyp = O=C(O)[C@@H]1C[C@@H](O)CN1; Phg = N[C@H](C(=O)O)c1ccccc1; CO = O=C([*:1])[*:2]; Bn = c1ccc(C*)cc1
property-measured: half-life (h)
Give the quantity in h, number only.

Entry NCCCC[C@@H]1NC(=O)[C@@H](Cc2c[nH]c3ccccc23)NC(=O)[C@H](c2ccccc2)NC(=O)[C@@H]2C[C@@H](OC(=O)NCCN)CN2C(=O)[C@H](Cc2ccccc2)NC(=O)[C@H](Cc2ccc(OCc3ccccc3)cc2)NC1=O [Pasireotide] (cyclo([Hyp]([CO-Ethylenediamine])[Phg][dW]KY(Bn)F)) — recorded half-life = 9.1

---

# test-description: Plasma pharmacokinetics after a single subcutaneous dose in healthy volunteers
# Format: in vivo, human
# experimental-conditions: male, human, plasma, sc, 10 ug
*1 amine or outer side, *2 acyl side, *3 side chain or, on linkers, in order; H or OH if unused. Where a SMILES comes first, the peptide text is derived from it. Side-chain parts run from the residue outwards. [ ]: non-standard residue; d: D form. The star is where a group is joined. Ethylenediamine = C(CN[*:2])N[*:1]; Hyp = O=C(O)[C@@H]1C[C@@H](O)CN1; Phg = N[C@H](C(=O)O)c1ccccc1; CO = O=C([*:1])[*:2]; Bn = c1ccc(C*)cc1
property-measured: AUC(0-t)

Entry NCCCC[C@@H]1NC(=O)[C@@H](Cc2c[nH]c3ccccc23)NC(=O)[C@H](c2ccccc2)NC(=O)[C@@H]2C[C@@H](OC(=O)NCCN)CN2C(=O)[C@H](Cc2ccccc2)NC(=O)[C@H](Cc2ccc(OCc3ccccc3)cc2)NC1=O [Pasireotide] (cyclo([Hyp]([CO-Ethylenediamine])[Phg][dW]KY(Bn)F)) — recorded AUC(0-t) = 0.66 ng·h/mL

---

# test-description: Plasma pharmacokinetics after a single subcutaneous dose in healthy volunteers
# Format: in vivo, human
# experimental-conditions: male, human, plasma, sc, 10 ug
*1 amine or outer side, *2 acyl side, *3 side chain or, on linkers, in order; H or OH if unused. Where a SMILES comes first, the peptide text is derived from it. Side-chain parts run from the residue outwards. [ ]: non-standard residue; d: D form. The star is where a group is joined. Ethylenediamine = C(CN[*:2])N[*:1]; Hyp = O=C(O)[C@@H]1C[C@@H](O)CN1; Phg = N[C@H](C(=O)O)c1ccccc1; CO = O=C([*:1])[*:2]; Bn = c1ccc(C*)cc1
property-measured: Cmax (ng/mL)
Give the quantity in ng/mL, number only.

Entry NCCCC[C@@H]1NC(=O)[C@@H](Cc2c[nH]c3ccccc23)NC(=O)[C@H](c2ccccc2)NC(=O)[C@@H]2C[C@@H](OC(=O)NCCN)CN2C(=O)[C@H](Cc2ccccc2)NC(=O)[C@H](Cc2ccc(OCc3ccccc3)cc2)NC1=O [Pasireotide] (cyclo([Hyp]([CO-Ethylenediamine])[Phg][dW]KY(Bn)F)) — recorded Cmax = 0.24

---

# test-description: Plasma pharmacokinetics after a single subcutaneous dose in healthy volunteers
# Format: in vivo, human
# experimental-conditions: male, human, plasma, sc, 1200 ug
*1 amine or outer side, *2 acyl side, *3 side chain or, on linkers, in order; H or OH if unused. Where a SMILES comes first, the peptide text is derived from it. Side-chain parts run from the residue outwards. [ ]: non-standard residue; d: D form. The star is where a group is joined. Ethylenediamine = C(CN[*:2])N[*:1]; Hyp = O=C(O)[C@@H]1C[C@@H](O)CN1; Phg = N[C@H](C(=O)O)c1ccccc1; CO = O=C([*:1])[*:2]; Bn = c1ccc(C*)cc1
property-measured: CL/F (mL/min)
Give the quantity in mL/min, number only.

Entry NCCCC[C@@H]1NC(=O)[C@@H](Cc2c[nH]c3ccccc23)NC(=O)[C@H](c2ccccc2)NC(=O)[C@@H]2C[C@@H](OC(=O)NCCN)CN2C(=O)[C@H](Cc2ccccc2)NC(=O)[C@H](Cc2ccc(OCc3ccccc3)cc2)NC1=O [Pasireotide] (cyclo([Hyp]([CO-Ethylenediamine])[Phg][dW]KY(Bn)F)) — recorded CL/F = 218

---

# test-description: Plasma pharmacokinetics after a single subcutaneous dose in healthy volunteers
# Type: in vivo, human
# experimental-conditions: male, human, plasma, sc, 200 ug
*1 amine or outer side, *2 acyl side, *3 side chain or, on linkers, in order; H or OH if unused. Where a SMILES comes first, the peptide text is derived from it. Side-chain parts run from the residue outwards. [ ]: non-standard residue; d: D form. The star is where a group is joined. Ethylenediamine = C(CN[*:2])N[*:1]; Hyp = O=C(O)[C@@H]1C[C@@H](O)CN1; Phg = N[C@H](C(=O)O)c1ccccc1; CO = O=C([*:1])[*:2]; Bn = c1ccc(C*)cc1
property-measured: Tmax (min)
Give the quantity in min, number only.

Entry NCCCC[C@@H]1NC(=O)[C@@H](Cc2c[nH]c3ccccc23)NC(=O)[C@H](c2ccccc2)NC(=O)[C@@H]2C[C@@H](OC(=O)NCCN)CN2C(=O)[C@H](Cc2ccccc2)NC(=O)[C@H](Cc2ccc(OCc3ccccc3)cc2)NC1=O [Pasireotide] (cyclo([Hyp]([CO-Ethylenediamine])[Phg][dW]KY(Bn)F)) — recorded Tmax = 22.8

---

# test-description: Plasma pharmacokinetics after a single subcutaneous dose in healthy volunteers
# Assay type: in vivo, human
# experimental-conditions: male, human, plasma, sc, 30 ug
*1 amine or outer side, *2 acyl side, *3 side chain or, on linkers, in order; H or OH if unused. Where a SMILES comes first, the peptide text is derived from it. Side-chain parts run from the residue outwards. [ ]: non-standard residue; d: D form. The star is where a group is joined. Ethylenediamine = C(CN[*:2])N[*:1]; Hyp = O=C(O)[C@@H]1C[C@@H](O)CN1; Phg = N[C@H](C(=O)O)c1ccccc1; CO = O=C([*:1])[*:2]; Bn = c1ccc(C*)cc1
property-measured: AUC(0-t) (ng·h/mL)
Give the quantity in ng·h/mL, number only.

Entry NCCCC[C@@H]1NC(=O)[C@@H](Cc2c[nH]c3ccccc23)NC(=O)[C@H](c2ccccc2)NC(=O)[C@@H]2C[C@@H](OC(=O)NCCN)CN2C(=O)[C@H](Cc2ccccc2)NC(=O)[C@H](Cc2ccc(OCc3ccccc3)cc2)NC1=O [Pasireotide] (cyclo([Hyp]([CO-Ethylenediamine])[Phg][dW]KY(Bn)F)) — recorded AUC(0-t) = 2.78
